# Test system: T-47D breast
# Protocol Text: NCI-60 one-dose screen, 48 h (100 = growth as untreated, 0 = no growth, -100 = all killed)
# Test Parameters: 10 µM unless noted
# Procedure: Growth inhibition of the T-47D human tumor cell line is measured as a screen for anti-cancer activity. Cells are grown in 96 well plates and exposed to the test compound for 48 hours. Compounds are tested at a single concentration, which is 10^-5 M for most compounds. The reported endpoint is percent growth (GI% or GIPRCNT), where numbers from 0 - 100% represent growth inhibition, and numbers from -100% - 0 represent cell death. For example, a value of 40 represents 60% growth inhibition. […]
About 83,000 compounds went through this panel and 20% of them were active in at least one assay; those are over-represented in the sample as a whole. Activity calls are given as the source filed them. The calls were made as follows: active = growth percent below 10; inactive = the rest.
Quick list: growth per entry.
Reported Endpoint: growth

>>> readout_value("CN1CCN(Cc2ccc3c(NNC(=O)c4ccccc4)nc4cc(F)ccc4n23)CC1")
"24.7% (inactive)"
>>> readout_value("CC1=NN(c2nc(SCC(=O)Nc3nc4ccc(C)cc4s3)nc(-c3ccccc3)c2C#N)C(=O)C1")
"91.3% (inactive)"
>>> readout_value("c1ccc(CNc2c3ccccc3nc3ccccc23)cc1")
"37.7% (inactive)"
>>> readout_value("O=C(/C=C(/C=C/c1cccc2[nH]ccc12)OB(F)F)/C=C/c1cccc2[nH]ccc12")
"7.95% (active)"
>>> readout_value("Cc1ccc(-c2nn(-c3ccccc3)cc2C=C2C(=O)ON=C2C(C)C)cc1")
"78.6% (inactive)"
